assay: Conversion rate of salt-form prodrugs to parent compound in mouse plasma; type: in vitro ADME; conditions: conversion to Compound 1, mouse plasma, 37 °C, 2 h
endpoint name: Release rate (%)
Kindly answer with a numeric value in %, unit omitted.

Sample records with Release rate:
{"compound": "C[C@@]12CC[C@@H]3[C@H](OC(=O)[C@H]3CN3CCC4(CC3)CC4)[C@@H]3[C@]1(CC[C@@]3(C)O)C2", "Release rate, %": 17.8}
{"compound": "CC(C)N(C[C@@H]1C(=O)O[C@H]2[C@H]1CC[C@@]1(C)C[C@]13CC[C@@](C)(O)[C@H]23)C(C)C", "Release rate, %": 13.9}
{"compound": "CCN1CCN(C[C@@H]2C(=O)O[C@H]3[C@H]2CC[C@@]2(C)C[C@]24CC[C@@](C)(O)[C@H]34)CC1", "Release rate, %": 17.4}
{"compound": "CN(C)C[C@@H]1C(=O)O[C@H]2[C@H]1CC[C@@]1(C)C[C@]13CC[C@@](C)(O)[C@H]23 [compound 21]", "Release rate, %": 10.7}

Request: What value of Release rate has been reported for the following compound? CCN(CC)C[C@@H]1C(=O)O[C@H]2[C@H]1CC[C@@]1(C)C[C@]13CC[C@@](C)(O)[C@H]23
Response: 14.5

Request: I would be grateful if you could share the reported Release rate for C[C@@]12CC[C@@H]3[C@H](OC(=O)[C@H]3CN3CC4CCCC4C3)[C@@H]3[C@]1(CC[C@@]3(C)O)C2 (stereo partly shown) .
Response: 14.4

Request: For the compound CN(C)C[C@@H]1C(=O)O[C@H]2[C@H]1CC[C@@]1(C)C[C@]13CC[C@@](C)(O)[C@H]23 [compound 42] , what Release rate is on record?
Response: 14.2

Request: Look up Release rate for this compound: C[C@@]12CC[C@@H]3[C@H](OC(=O)[C@H]3CN3CCCCC3)[C@@H]3[C@]1(CC[C@@]3(C)O)C2
Response: 17.1

Request: Which value of Release rate has been reported for C[C@@]12CC[C@@H]3[C@H](OC(=O)[C@H]3CN3CCC(N4CCOCC4)CC3)[C@@H]3[C@]1(CC[C@@]3(C)O)C2 in the records?
Response: 14.8

Request: Entry CCOC(=O)[C@@H]1CCCN1C[C@@H]1C(=O)O[C@H]2[C@H]1CC[C@@]1(C)C[C@]13CC[C@@](C)(O)[C@H]23 has what Release rate?
Response: 14.3

Request: Request the reported Release rate associated with C[C@@]12CC[C@@H]3[C@H](OC(=O)[C@H]3CN3CCOCC3)[C@@H]3[C@]1(CC[C@@]3(C)O)C2
Response: 14.1
